Listed next: entries and their corresponding IC50.
- targetOfAssay: D816V Kit (Homo sapiens, UniProt P10721, D816V)
- Sequence (P10721 26-976 D816V): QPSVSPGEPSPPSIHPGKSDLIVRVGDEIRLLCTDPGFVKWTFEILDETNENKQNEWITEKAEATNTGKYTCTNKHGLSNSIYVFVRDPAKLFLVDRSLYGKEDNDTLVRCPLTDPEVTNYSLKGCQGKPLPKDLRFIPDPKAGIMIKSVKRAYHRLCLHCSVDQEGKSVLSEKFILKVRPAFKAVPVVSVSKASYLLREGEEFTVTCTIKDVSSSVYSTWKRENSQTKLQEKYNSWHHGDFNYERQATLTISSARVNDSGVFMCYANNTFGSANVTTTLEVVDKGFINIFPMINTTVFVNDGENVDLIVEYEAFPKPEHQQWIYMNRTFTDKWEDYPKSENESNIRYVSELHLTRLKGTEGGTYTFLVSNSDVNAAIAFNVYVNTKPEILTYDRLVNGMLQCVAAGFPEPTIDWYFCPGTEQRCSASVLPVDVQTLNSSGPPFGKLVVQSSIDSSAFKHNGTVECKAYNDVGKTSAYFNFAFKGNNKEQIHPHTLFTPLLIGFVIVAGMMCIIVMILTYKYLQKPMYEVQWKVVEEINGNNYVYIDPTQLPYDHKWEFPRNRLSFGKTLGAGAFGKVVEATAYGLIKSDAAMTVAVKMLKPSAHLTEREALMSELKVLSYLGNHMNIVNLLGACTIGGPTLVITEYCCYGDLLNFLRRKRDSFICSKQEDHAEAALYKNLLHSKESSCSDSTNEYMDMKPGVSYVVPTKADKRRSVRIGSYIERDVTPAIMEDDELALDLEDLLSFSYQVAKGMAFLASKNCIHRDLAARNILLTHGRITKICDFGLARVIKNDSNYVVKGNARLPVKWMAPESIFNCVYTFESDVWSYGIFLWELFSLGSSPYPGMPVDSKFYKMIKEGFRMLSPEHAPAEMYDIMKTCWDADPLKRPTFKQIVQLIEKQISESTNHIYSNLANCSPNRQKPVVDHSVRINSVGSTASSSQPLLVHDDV
- methodNotes: Kit D816V assay at Km (Caliper electrophoretic mobility shift)
- conditionNotes: 15 uM ATP, 25 C, 90 minutes
assayReadout: IC50

1) Cc1nn(CC(C)(C)O)cc1Nc1ncnc(N2CCN(c3ncc(Sc4ccccc4F)cn3)CC2)n1; < 1 nM
2) OC[C@H](O)Cn1cc(Nc2ncnc(N3CCN(c4ncc(Cc5ccccc5)cn4)CC3)n2)cn1; < 1 nM
3) Nc1nc(N2CCN(c3ncnc(Nc4cnn(CC5CN(C=O)CCO5)c4)n3)CC2)ncc1Cl (stereo not drawn); 10 to 100 nM
